- ASSAY SYSTEM: T1, B. fragilis peptide on HLA-A*02:01 (human)
- T1 peptide: MVWGPDPLYV
- TEST SUMMARY: data from [20]; method not given; soluble, other
RECORDED METRIC: Kd (µM)
# output: bare number, implied unit µM

Ask | Which Kd reading was recorded for the binder 1E6 (TCR) alpha TRAV12-3*01 CDR3: AMRGDSSYKLI beta TRBV12-4*01 CDR3: ASSLWEKLAKNIQY ?
Reply | 600
